Measurement Notes: Tmax in CD-1 mouse at 10 mg/kg, po measured after 24 hrs by HPLC/UV-VS analysis
Assay type: ADME, organism-based
Condition Set: in vivo

{"Smiles Notation": "Cl.c1ccc2oc(-c3ncc[nH]3)cc2c1", "Unit Info": "h", "Tmax": 2}

* * *

Measurement Notes: AUC (0 to t) in CD-1 mouse at 10 mg/kg, po measured after 24 hrs by HPLC/UV-VS analysis
Type: ADME, organism-based
Design: route oral, time 24 hrs, dose 10 mg/kg
Condition Set: in vivo

{"Smiles Notation": "Cl.c1ccc2oc(-c3ncc[nH]3)cc2c1", "AUC(0-t) at 24 h [ng·h/mL]": 2700}

* * *

Measurement Notes: Stability in mouse plasma assessed as compound remaining after 6 hrs
Type: ADME, cell-free
Condition Set: read-out: Stabilty

{"Smiles Notation": "Cl.c1ccc2oc(-c3ncc[nH]3)cc2c1", "remaining at 6 h / %": 100}

* * *

Measurement Notes: Displacement of [3H]clonidine from imidazoline I1 receptor high affinity site in human hypothalamic membranes measured after 30 mins by liquid scintillation counting spectrometry
Assay type: cell membranes, Hypothalamus, Membrane
Value Kind: Ki

{"Smiles Notation": "COc1nc(C)nc(Cl)c1NC1=NCCN1", "Value": "0.2 nM"}

* * *

Readings of pKi for the listed molecules
Measurement Notes: Displacement of [3H]2-BFI from imidazoline I2 receptor high affinity site in post-mortem human brain frontal cortex membrane two site model measured after 45 mins by liquid scintillation counting spectrometry

{"Molecule": "CCn1ccnc1-c1cc2ccc(OC)cc2o1.Cl", "pKi": 9.13}
{"Molecule": "c1ccc2oc(C3=NCCN3)cc2c1", "pKi": 9.08}
{"Molecule": "CCn1ccnc1-c1cc2ccccc2o1.Cl", "pKi": 7.09}
{"Molecule": "Cl.Oc1ccc2oc(-c3ncc[nH]3)cc2c1", "pKi": 9.57}
{"Molecule": "CCn1ccnc1-c1cc2cc(OC)ccc2o1.Cl", "pKi": 6.95}
{"Molecule": "Brc1ccc2oc(-c3ncc[nH]3)cc2c1.Cl", "pKi": 8.63}
{"Molecule": "COc1ccc2cc(-c3ncc[nH]3)oc2c1.Cl", "pKi": 6.77}
{"Molecule": "Cl.c1ccc2oc(-c3ncc[nH]3)cc2c1", "pKi": 8.17}
{"Molecule": "c1ccc2c(c1)OCC(C1=NCCN1)O2 (stereo not given) [IDAZOXAN]", "pKi": 7.87}
{"Molecule": "Cl.Cn1ccnc1-c1cc2ccccc2o1", "pKi": 6.99}

* * *

System: HL-60
Measurement Notes: Cytotoxicity against human HL-60 cells at 100 uM by real time IncuCyte proliferation assay
Type: cell-based
Condition Set: hl-60, 100 µM

{"Compound": "c1ccc2c(c1)OCC(C1=NCCN1)O2 (configuration not stated) [IDAZOXAN]", "Activity": "Non-Toxic"}
{"Compound": "CCn1ccnc1-c1cc2ccc(OC)cc2o1.Cl", "Activity": "Non-Toxic"}
{"Compound": "Cl.Cn1ccnc1-c1cc2ccccc2o1", "Activity": "Non-Toxic"}
{"Compound": "Cl.Oc1ccc2cc(-c3ncc[nH]3)oc2c1", "Activity": "Non-Toxic"}
{"Compound": "Cl.Oc1ccc2oc(-c3ncc[nH]3)cc2c1", "Activity": "Non-Toxic"}
{"Compound": "COc1ccc2oc(-c3ncc[nH]3)cc2c1.Cl", "Activity": "Non-Toxic"}
{"Compound": "Cl.c1ccc2oc(-c3ncc[nH]3)cc2c1", "Activity": "Non-Toxic"}
{"Compound": "CCn1ccnc1-c1cc2cc(OC)ccc2o1.Cl", "Activity": "Non-Toxic"}
{"Compound": "c1ccc2oc(C3=NCCN3)cc2c1", "Activity": "Non-Toxic"}
{"Compound": "Brc1ccc2oc(-c3ncc[nH]3)cc2c1.Cl", "Activity": "Non-Toxic"}
{"Compound": "COc1ccc2cc(-c3ncc[nH]3)oc2c1.Cl", "Activity": "Non-Toxic"}
{"Compound": "CCn1ccnc1-c1cc2ccccc2o1.Cl", "Activity": "Non-Toxic"}

Where these numbers come from: ChEMBL document CHEMBL4825692
